Target: T1, Rhesus GIPR (rhesus, UniProt F7E1R9 22-466)
T1 sequence: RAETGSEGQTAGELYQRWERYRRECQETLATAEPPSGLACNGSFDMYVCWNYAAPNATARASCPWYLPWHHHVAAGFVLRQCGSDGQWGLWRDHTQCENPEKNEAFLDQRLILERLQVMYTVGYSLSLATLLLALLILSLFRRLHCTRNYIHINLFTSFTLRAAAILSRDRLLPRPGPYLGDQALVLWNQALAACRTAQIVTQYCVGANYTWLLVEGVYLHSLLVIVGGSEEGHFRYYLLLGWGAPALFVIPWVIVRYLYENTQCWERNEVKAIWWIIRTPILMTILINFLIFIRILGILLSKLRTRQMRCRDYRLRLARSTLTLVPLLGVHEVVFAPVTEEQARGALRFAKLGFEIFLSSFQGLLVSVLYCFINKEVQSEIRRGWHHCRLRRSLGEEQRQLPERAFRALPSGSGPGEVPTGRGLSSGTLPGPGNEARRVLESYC
Test: cell-based or functional assay
quantity: Rhesus GIPR CAMP Assay (Conc. mAb @ 60% Inhibition in nM)
Answers are plain numbers, in nM.

18F2.010 (antibody, human IgG1, kappa, N297G, V domains shown) VH: QVQLVESGGGVVQPGRSLRLSCAASGFTFSNFGMHWVRQAPGKGLEWVAVIWYDASNENYADSVKGRFTISRDNSKNTLYLQMNSLRAADTAVYYCARDGTIFGVVLGDYWGQGTLVTVSS VL: DIQMTQSPSSLSASIGDRVTITCRASQDLRNYLGWYQQKPGKAPKLLIYGASSLQSGVPSRFSGSGSGTEFTLTISSLQPEDFATYYCLQHNNYPFTFGPGTKVDIKR : 1.75
12H11.002 (antibody, human IgG1, kappa, N297G, V domains shown) VH: QVPLVQSGAEVKKPGASVKVSCKASGYTFTGYYIHWVRQAPGQGLEWMGWISPNQGETNYAQKFQDRVTMTRDTSISTAYMELSRLRSDDTAVYYCAREATIFGMLIVPFDYWGQGTLVTVSS VL: DIVMTQSPDSLSVSLGERATINCKSSQSVLSSSNNKNYLAWYQQKPGQPPNLLIYWTSTRDSGVPDRFSGSGSGTDFTLTINSLQAEDVAVYYCQQYYRTPWTFGQGTKVEIKR : 0.45

Rhesus GIPR CAMP Assay (Conc. mAb @ 60% Inhibition in nM) in this record for 17B11.002.005 (antibody, human IgG1, lambda, N297G, V domains shown) VH: QMQLVQSGAEVKKPGASVKVSCKASGYTFTSYDINWVRQATGQGLEWMGWMNPNSGGTGYAQKFQGRVTMTRDTSISTAYMELSSLRSQDTAVYYCARGGDYVWGSYRPYYYYYGMDVWGQGTTVTVSS VL: QSVLTQPPSVSAAPGQKVTISCSGSSSNIGNNYVSWYQQLPGTAPKLLIYDNNKRPSGIPDRFSGSKSGTSATLAITGLQTGDEADYYCGTWDSSLSAVVFGGGTKLTVLG : 0.08
